system: HIV-1 wild-type (R8) virus; test: Viral KINetics in Green cells (VIKING) assay, HIV-1 replication in MT4-GFP reporter cells; format: cell-based; details: Human immunodeficiency virus 1, 10% normal human serum, MT4-GFP cells, HIV-1 wild-type (R8); read-out: Viking (10% NHS), IC50
The entries below are paired with their reported IC50.
measured-quantity: IC50

INSERT INTO results (compound, assay_target, measured_quantity, result) VALUES
  ('C#C[C@]1(CO)O[C@@H](n2ccc3c(N)nc(Cl)nc32)C[C@@H]1OC(=O)C1CCCCC1 [Example 77]', 'HIV-1 wild-type (R8) virus', 'IC50', '5 nM'),
  ('C#C[C@]1(CO)O[C@@H](n2ccc3c(N)nc(Cl)nc32)C[C@@H]1OC(=O)OCCC [Example 80]', 'HIV-1 wild-type (R8) virus', 'IC50', '10 nM'),
  ('C#C[C@]1(COC(=O)OCC23CC(C2)C3)O[C@@H](n2ccc3c(N)nc(Cl)nc32)C[C@@H]1OC(=O)OCCC12CC3CC(CC(C3)C1)C2 [Example 175]', 'HIV-1 wild-type (R8) virus', 'IC50', '34 nM'),
  ('C#C[C@]1(COC(=O)OCc2cccn(C)c2=O)O[C@@H](n2ccc3c(N)nc(Cl)nc32)C[C@@H]1O [Example 208]', 'HIV-1 wild-type (R8) virus', 'IC50', '4.4 nM'),
  ('C#C[C@]1(COC(=O)CCCC[C@@H]2SC[C@@H]3NC(=O)N[C@@H]32)O[C@@H](n2ccc3c(N)nc(Cl)nc32)C[C@@H]1OC(=O)OCC [Example 196]', 'HIV-1 wild-type (R8) virus', 'IC50', '27 nM'),
  ('C#C[C@]1(CO)O[C@@H](n2ccc3c(N)nc(Cl)nc32)C[C@@H]1OC(=O)CCc1ccccc1 [Example 81]', 'HIV-1 wild-type (R8) virus', 'IC50', '3.3 nM'),
  ('C#C[C@]1(COC(=O)Oc2ccccc2)O[C@@H](n2ccc3c(N)nc(Cl)nc32)C[C@@H]1O [Example 17]', 'HIV-1 wild-type (R8) virus', 'IC50', '1.4 nM');

---

Below, each entry is listed alongside its reported pIC50.
system: HIV-1 wild-type (R8) virus; assay: Viral KINetics in Green cells (VIKING) assay, HIV-1 replication in MT4-GFP reporter cells; type: cell-based; settings: Human immunodeficiency virus 1, 10% normal human serum, MT4-GFP cells, HIV-1 wild-type (R8); read-out: Viking (10% NHS), IC50
pIC50: −log10 of the molar value.
measured-quantity: pIC50

INSERT INTO measurements (structure_smiles_string, measured_quantity, recorded_number) VALUES
  ('C#C[C@]1(COC(=O)OCc2cccn(C)c2=O)O[C@@H](n2ccc3c(N)nc(Cl)nc32)C[C@@H]1OC(=O)OCc1cccn(C)c1=O', 'pIC50', 8.47),
  ('C#C[C@]1(COC(=O)OCCCCCCCCCCCC)O[C@@H](n2ccc3c(N)nc(Cl)nc32)C[C@@H]1O', 'pIC50', 8.40),
  ('C#C[C@]1(COC(=O)OCCCCCCCC)O[C@@H](n2ccc3c(N)nc(Cl)nc32)C[C@@H]1OC(C)=O', 'pIC50', 7.55),
  ('C#C[C@]1(COC(=O)CCCCC)O[C@@H](n2ccc3c(N)nc(Cl)nc32)C[C@@H]1OC(=O)CC', 'pIC50', 7.77),
  ('C#C[C@]1(CO)O[C@@H](n2ccc3c(N)nc(Cl)nc32)C[C@@H]1OC(=O)CCC12CC3CC(CC(C3)C1)C2', 'pIC50', 8.44),
  ('C#C[C@]1(CO)O[C@@H](n2ccc3c(N)nc(Cl)nc32)C[C@@H]1OC(=O)CCCCCCCCCCCCCCC', 'pIC50', 7.60),
  ('C#C[C@]1(COC(=O)CC2CCCCC2)O[C@@H](n2ccc3c(N)nc(Cl)nc32)C[C@@H]1O', 'pIC50', 8.51);
